- Protocol summary: in vivo
- Condition set: rat, iv, 5 mg/kg
Readout: Vd
# answer = value followed by unit

Challenge: // returns reported Vd for input CC(C)(C)C[C@@H]1N[C@@H](C(=O)N[C@H]2CC[C@H](O)CC2)[C@H](c2cccc(Cl)c2F)[C@]12C(=O)Nc1cc(Cl)ccc12
Response given: 2.98 L/kg

###

Measured clearance, listed per entry.
- Protocol summary: in vivo
- Condition set: rat, iv, 10 mg/kg
Give the value in mL/min/kg but do not write mL/min/kg after it.

[[record]]
input_smiles = "O=C(NC12CCC(C(=O)O)(CC1)CC2)[C@@H]1NC2(CCCCC2)[C@@]2(C(=O)Nc3cc(Cl)ccc32)[C@H]1c1cccc(Cl)c1F"
readout = "clearance"
endpoint_value = 1.98

[[record]]
input_smiles = "O=C(O)c1ccc(NC(=O)[C@@H]2NC3(CCCCC3)[C@@]3(C(=O)Nc4cc(Cl)ccc43)[C@H]2c2cccc(Cl)c2F)cc1"
readout = "clearance"
endpoint_value = 19.3

[[record]]
input_smiles = "CN1[C@@H](C(=O)NC23CCC(C(=O)O)(CC2)CC3)[C@H](c2cccc(Cl)c2F)[C@]2(C(=O)Nc3cc(Cl)ccc32)C12CCCCC2"
readout = "clearance"
endpoint_value = 5.87

[[record]]
input_smiles = "CCN1[C@@H](C(=O)NC23CCC(C(=O)O)(CC2)CC3)[C@H](c2cccc(Cl)c2F)[C@]2(C(=O)Nc3cc(Cl)ccc32)C12CCCCC2"
readout = "clearance"
endpoint_value = 4.28


Challenge: Recorded clearance of CC1(C)CCC2(CC1)N[C@@H](C(=O)Nc1ccc(C(=O)O)cc1)[C@H](c1cccc(Cl)c1F)[C@]21C(=O)Nc2cc(Cl)ccc21 , please.
Response given: 11.5
